experiment: Cytotoxicity against human Raji cells assessed as cell viability at 500 molar ratio after 48 hrs by trypan blue staining method; assay type: cell-based; settings: read-out: Activity
In this section we review reported viability at 48 h, 500 molar ratio values for a set of compounds.
Report only the number, with the unit % understood.

>>> df
                                     smiles  quantitative_readout
0  CCCCCCCCCCCCCCCCCC(=O)OCC(COC(=O)CCCCCCCCCCCCCCCCC)O[C@@H]1O[C@H](CO)[C@@H](O)[C@H](O)[C@H]1O                    70
1  CCCCCC(=O)OCC(COC(=O)CCCCC)O[C@@H]1O[C@H](CS(=O)(=O)[O-])[C@@H](O)[C@H](O)[C@H]1O.[Na+]                    70
2  CCCCCCCCCCCCCCCCCC(=O)OCC(COC(=O)CCCCCCCCCCCCCCCCC)O[C@@H]1O[C@H](CS(=O)(=O)[O-])[C@@H](O)[C@H](O)[C@H]1O.[Na+]                    70

In the following, a different compound is considered.
Task item: Given CCCCCCCCCCCC(=O)OCC(COC(=O)CCCCCCCCCCC)O[C@@H]1O[C@H](CS(=O)(=O)[O-])[C@@H](O)[C@H](O)[C@H]1O.[Na+] , respond with its viability at 48 h, 500 molar ratio.
Reply: 70
